- system-under-test: T1, human MSLN-R1-his protein (human, UniProt Q13421 296-390)
- T1 construct: Region 1 of human mesothelin, made in HEK293E cells, His-tagged; also called human MSLN-R1 protein; hMSLN-R1-his; not shown: His tag
- T1 chain: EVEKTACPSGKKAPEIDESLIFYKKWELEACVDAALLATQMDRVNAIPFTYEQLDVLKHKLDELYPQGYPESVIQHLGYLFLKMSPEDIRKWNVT
- experiment-summary: ELISA on coated MSLN-R1; antibody 1 nM
Documented OD450 across a set of binders
Your answer should be a plain number; it is taken to be in OD450.

// worked examples, OD450 included
1) S009-F8-33.12 (antibody, human IgG1, kappa, V domains shown) VH: EVQLQQSGAELVKPGASVKLSCTASAFNIKDYYMHWVKQRTEQGLEWIGRIDPEDGETKYAPKFQGKATITADTSSNTAYLQLSSLTSEDTAVYYCASGSGTGAMDYWGQGTSVTVSS VL: DIVMTQSQKFMSTSVGDRVSITCKASQNVRTAVGWYQQKPGQSPKALIYLASNRHTGVPDRFTGSGSGTDFTLTISNVQSEDLADYFCLQHWNSPYTFGGGTKLVIKR | 2.45
2) S009-F8-24.14 (antibody, human IgG1, kappa, V domains shown) VH: EFQLQQSGPELVKPGASVKISCKASGYSFTDYNMNWVKLSNGKSLEWIGVIIPNYGTSSYNQKFKGKATLTVDQSSSTAYMQLNSLTSEDSAVYYCARWDNYYGSSLDYWGQGTTLTVSS VL: DIVMTQSQKFMSTTVGDRVSITCKASQNVGTAVAWYQQKPGQSPKLLIYSASNRYTGVPDRFTGSGSGTDFILTISNMQSEDLADYFCQQYSSYPLTFGAGTKLELKR | 1.63

Entry S009-F8-13.8 (antibody, human IgG1, kappa, V domains shown) VH: EFQLQQSGPELVKPGASVKISCKASGYSFTDYNMNWVKQTNGKSLEWIGIINPNYGTSSYNQKFKGKATLTVDQSSSTAYMQLNSLTSEDSAVYYCARVGRDNSGFDYWGQGTTLTVSS VL: QIVLTQSPAIMSASPGEKVTMTCSASSSVSYMYWYQQKPGSSPRLLIYDTSNLASGVPVRFSGSGSGTSYSLTISRMEAEDAATYYCQQWSSYPPTFGSGTELEIKR — recorded OD450 = 1.8
